Values from patent US6284734A

# System: PSA (Homo sapiens, UniProt P07288)
# Construct: Using PSA as purified from human urine or seminal plasma; from tissue; host or cells: human urine or seminal plasma
# Sequence (P07288 25-261): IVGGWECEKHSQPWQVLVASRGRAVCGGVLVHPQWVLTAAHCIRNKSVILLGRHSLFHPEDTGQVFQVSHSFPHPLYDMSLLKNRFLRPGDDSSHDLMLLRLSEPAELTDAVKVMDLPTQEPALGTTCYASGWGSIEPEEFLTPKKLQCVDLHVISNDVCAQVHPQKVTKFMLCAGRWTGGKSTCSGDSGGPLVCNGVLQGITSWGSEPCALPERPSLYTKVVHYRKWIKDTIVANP
# Test Summary: PSA activity assay with Pro-Phe-Arg-MCA substrate, residual activity in coexistence of peptides
# Format: biochemical
# Experimental Setup: column B; enzyme added PSA; Substrate:Peptide molar ratio 1:10; 100% without any Peptide
No end group written: not given here.
Readout Type: Residual activity rate (%) after addition of Peptides

VSSTHRVSDPKF [Peptide 2] ... 104.8
LNHLKFLNVL [Peptide 3] ... 73.3
PSKGRKRGFM [Peptide 5] ... 84.8

[A] VNASAVSRLRAYLLP [Peptide 1]
[B] GFYKKKQSR [Peptide 4]
Which value of Residual activity rate (%) after addition of Peptides is numerically greater: that of A or that of B ? Select an item and report its label.
A
(A: 100.7%, B: 46.6%)

* * *

# System: PSA (Homo sapiens, UniProt P07288)
# Construct: Using PSA as purified from human urine or seminal plasma; from tissue; host or cells: human urine or seminal plasma
# Test Summary: PSA activity assay with Pro-Phe-Arg-MCA substrate, residual activity in coexistence of peptides
# Type: biochemical
# Experimental Setup: column A; enzyme added PSA; Substrate:Peptide molar ratio 1:1; 100% without any Peptide
No end group written: not given here.
Readout Type: Residual activity rate (%) after addition of Peptides

PSKGRKRGFM [Peptide 5] ... 75.1
GFYKKKQSR [Peptide 4] ... 66.5
VSSTHRVSDPKF [Peptide 2] ... 87.5
VNASAVSRLRAYLLP [Peptide 1] ... 107.4
LNHLKFLNVL [Peptide 3] ... 83.5
